System: NCI-H522 lung
assay: NCI tumour cell line growth inhibition, 48 h
Task for the reader: assign each of the following compounds its reported TGI.

Reference set (4 entries):
compound: COc1cc2c(cc1OC)C1Cc3sccc3CN1CC2 (stereo not given)
experimental-system: NCI-H522 lung
experimental-value: > 100 µM
//
compound: COc1ccc(OC)c(NC(=O)C2=C(C)NC(C)=C(C(=O)Nc3cc(OC)ccc3OC)C2c2ccco2)c1
experimental-system: NCI-H522 lung
experimental-value: > 100 µM
//
compound: O=C(CCCn1cnc([N+](=O)[O-])n1)NCCCn1ccnc1[N+](=O)[O-]
experimental-system: NCI-H522 lung
experimental-value: > 100 µM
//
compound: C=Cc1ccccc1 (tested in a mixture with another compound)
experimental-system: NCI-H522 lung
experimental-value: > 75 µg/mL

Turning to the following compound.
API: value(readout=TGI, system=NCI-H522 lung) for record "CCOC(=O)COc1ccc(OCC(=O)OCC)c2c1C(=O)CCCC2=O"
> 100 µM
